System: rodent lifetime carcinogenesis bioassay, tumor incidence TD50
Assay: carcinogenic potency in animals, long-term in vivo studies, CPDB compilation (AID 1745844)
Conditions: rat; strain Fischer 344; males; by gavage; site: liver; lesion: hemangiosarcoma; dosed 69 weeks; study length 69 weeks

mol	TD50 [mg/kg/day]
CN(CCO)N=O	8.97

----------
System: rodent lifetime carcinogenesis bioassay, tumor incidence TD50
Assay: carcinogenic potency in animals, long-term in vivo studies, CPDB compilation (AID 1745844)
Details: mouse; strain B6C3F1; males; in feed; site: liver; lesion: hepatocellular adenoma + hepatoblastoma + hepatocellular carcinoma; dosed 104 weeks; study length 104 weeks
value_kind: TD50 (mg/kg/day)

mol	uom	value_observed
Cc1ncc[nH]1	mg/kg/day	546

Where do these numbers come from? They come from PubChem BioAssay AID1745844.
